- Test system: Mycobacterium tuberculosis
- protocol-text: Antimycobacterial activity against Mycobacterium tuberculosis H37Rv ATCC 27294 by Alamar blue assay
- Type: functional
Numbered stars: 1 amine (or outer) side, 2 acyl side, 3 side chain; on linkers, the order of the positions; unused ones are H or OH. Bridge positions count the residues as written; N and C are the ends. Square brackets hold non-standard residues; d marks the D form. Peptide text beside a SMILES is read from it. * marks the point of attachment. Phe(3R-OH) = O=C([C@@H](N[*:1])[C@H](O[*:3])c1ccccc1)[*:2]; NMeTrp(4-OMe) = CN[C@@H](Cc1c[nH]c2cccc(OC)c12)C(=O)O; NMe2Val = CC(C)[C@@H](C(=O)*)N(C)C; NMeT = CN[C@H](C(=O)O)[C@@H](C)O; NMeL = CN[C@@H](CC(C)C)C(=O)O; NMeV = CN[C@H](C(=O)O)C(C)C
measured-parameter: MIC (µg/mL)
All answers are understood in µg/mL, so give the number only.

Qu. Fill in: MIC of COc1cccc2[nH]cc(C[C@H]3C(=O)N[C@@H](C(C)C)C(=O)N[C@@H]([C@H](O)c4ccccc4)C(=O)N[C@@H](C(C)C)C(=O)O[C@H](C)[C@H](NC(=O)[C@H](C(C)C)N(C)C(=O)[C@@H](NC(=O)[C@H](C(C)C)N(C)C)C(C)C)C(=O)N(C)[C@@H]([C@@H](C)O)C(=O)N[C@@H](C(C)C)C(=O)N(C)[C@@H](CC(C)C)C(=O)N[C@@H](C(C)C)C(=O)N(C)[C@@H](C(C)C)C(=O)N3C)c12 (NMe2Val-V[NMeV]T[NMeT]V[NMeL]V[NMeV][NMeTrp(4-OMe)]V[Phe(3R-OH)]V; ester 3-C) is ___
Ans. 0.15

Qu. Fill in: MIC of CC[C@@H](C)[C@@H](C(=O)N[C@@H]1C(=O)N(C)[C@@H]([C@@H](C)O)C(=O)N[C@@H](C(C)C)C(=O)N(C)[C@@H](CC(C)C)C(=O)N[C@@H](C(C)C)C(=O)N(C)[C@@H](C(C)C)C(=O)N(C)[C@@H](Cc2c[nH]c3cccc(OC)c23)C(=O)N[C@@H](C(C)C)C(=O)N[C@@H]([C@H](O)c2ccccc2)C(=O)N[C@@H]([C@@H](C)CC)C(=O)O[C@@H]1C)N(C)C(=O)[C@@H](NC(=O)[C@H](C(C)C)N(C)C)C(C)C is ___
Ans. 0.26

The origin of these recorded values is ChEMBL document CHEMBL4130508.
